- test.target: Microtubule-associated protein tau (Homo sapiens)
- procedure.text: Binding affinity to human tau associated NFTs at 10 uM by fluorescence microscopy
The source made the active and inactive calls. The rule behind the calls is not given here.
Pick from active, inactive when you respond.

For orientation, consider the following solved cases.
chem.smiles: CC(C)NC(=O)c1nn(-c2ccc(F)cc2)c(=O)c2c(N)scc12
category.label: inactive
//
chem.smiles: CC(C)NC(=O)c1nn(-c2ccc([N+](=O)[O-])cc2)c(=O)c2c(N)scc12
category.label: active
//
chem.smiles: CC(C)NC(=O)c1nn(-c2ccc(OCCF)cc2)c(=O)c2c(N)scc12
category.label: active

# next molecule below
Q) For CC(=C(C#N)C#N)c1ccc2cc(N(C)CCF)ccc2c1 , what call appears in the results of this test?
A) active

Hello, the source for this data is ChEMBL document CHEMBL2429822, in case you need it.
